- Test system: NCI-H226 lung
- procedure-text: NCI-60 one-dose screen, 48 h (100 = growth as untreated, 0 = no growth, -100 = all killed)
- study-conditions: 10 µM unless noted
This is part of a sample that, as a whole, favours compounds with a hit. Of some 83,000 tested, about 20% had one in any assay.
measure: growth (%)
Report only the number, with the unit % understood.

**Q:** Which growth reading was recorded for the compound CCC1(C)CC(CCNCc2ccccc2O)(c2ccc(C)cc2)CCO1 (centres undefined) ?
**A:** 107

**Q:** Now consider COC(=O)[C@@H](C)C[C@H](Cc1ccc(F)cc1)NC(=O)c1csc([C@@H](C[C@H](C(C)C)N(C)C(=O)[C@@H](NC(=O)[C@H]2CCCCN2C)C2CC2)OC(C)=O)n1 and answer again.
**A:** 43.2

**Q:** Now consider O=C1C=C(N2C3C4CCC(C4)C32)C(=O)C=C1c1ccccc1 (centres undefined) and answer again.
**A:** 107

**Q:** Now consider CC1(C)N=C(N)N=C(N)N1c1cccc(CCCCc2ccc(Cl)c(S(=O)(=O)F)c2)c1 and answer again.
**A:** 57.1

**Q:** Now consider Clc1ccc(CSC(Cn2ccnc2)c2ccc(Cl)cc2Cl)cc1 (centres undefined) and answer again.
**A:** 52.2

**Q:** Now consider CN(C)C1C(=O)C(C(N)=O)=C(O)C2(O)C(=O)C3=C(O)c4c(O)cccc4C(C)(O)C3CC12.[Cl][Sb]([Cl])[Cl] (centres undefined) and answer again.
**A:** 86.6

**Q:** Now consider CC12CCC3C(C=CC4=C(N)C(=O)CCC43C)C1CCC2=O (centres undefined) and answer again.
**A:** 96.3

**Q:** Now consider CC1=C(CNO)C2=C(C)C3(CC3)[C@@](C)(O)C(=O)C2=C1 and answer again.
**A:** 25.3

**Q:** Now consider COC(=O)CC12CC(NC(=O)c3csc([C@@H](C[C@H](C(C)C)N(C)C(=O)[C@@H](NC(=O)[C@H]4CCCCN4C)C(C)C)OC(C)=O)n3)(C1)C2 and answer again.
**A:** 23.1

====

Provide the recorded growth for the entries that follow.
- Tested on: PC-3 prostate
- procedure-text: NCI-60 one-dose screen, 48 h (100 = growth as untreated, 0 = no growth, -100 = all killed)
- study-conditions: 10 µM unless noted
Compounds without any hit were thinned out: in the full panel of roughly 83,000, 20% have a hit.
Report only the number, with the unit % understood.

**Q:** Which growth reading was recorded for the molecule CCC(C)(C)[C@H](NC(=O)[C@H]1CCCCN1C)C(=O)N(C)[C@H](C[C@@H](OC(C)=O)c1nc(C(=O)N[C@@H](Cc2ccccc2)C[C@H](C)C(=O)O)cs1)C(C)C ?
**A:** 24.9

**Q:** Now consider CNCc1cccnc1 and answer again.
**A:** 89

**Q:** Now consider CC(C)CCC(=O)O[C@H]1CC[C@H]2[C@@H]3CCC4=CC(=O)CC[C@]4(C)[C@H]3CC[C@]12C and answer again.
**A:** 92.8

**Q:** Now consider CC(C)CCC1(CCCl)C(=O)NC(=O)NC1=O and answer again.
**A:** 98.8

**Q:** Now consider O=C(Nc1ccc([As]=[As]c2ccc(NC(=O)c3ccccc3)cc2)cc1)c1ccccc1 (stereo not drawn) and answer again.
**A:** -86.2

**Q:** Now consider OCc1ccc2c(c1)OCO2 and answer again.
**A:** 94.3

**Q:** Now consider COc1cc([N+](=O)[O-])c2nc(C)ccc2c1[N+](=O)[O-] and answer again.
**A:** 93.9

**Q:** Now consider C[Se]C(=O)c1ccccc1OC(C)=O and answer again.
**A:** 70

====

- System: NCI-H226 lung
- procedure-text: NCI-60 one-dose screen, 48 h
- study-conditions: 10 µM unless noted
Compounds without any hit were thinned out: in the full panel of roughly 83,000, 20% have a hit. Active and inactive are the calls of the source. How the source made its calls: active means growth percent below 10; inactive means the rest.
Result category, one only: yes (1) for active, no (0) for inactive

**Q:** What call does the record list for Cc1ccc(C(=O)NCCCOc2ccc(N)cc2Cl)cc1S(=O)(=O)F ?
**A:** no (0)

**Q:** Now consider COC(=O)CCc1c[nH]c2ccc(N(CCCl)CCCl)cc12 and answer again.
**A:** no (0)

**Q:** Now consider c1cc2c(c3c1CCNC3)OCO2 and answer again.
**A:** no (0)

**Q:** Now consider Cc1cc(NC(=O)NCc2ccc(N3C(N)=NC(N)=NC3(C)C)cc2)ccc1S(=O)(=O)F and answer again.
**A:** no (0)

**Q:** Now consider CC[C@H](C)[C@H](NC(=O)C12C3C4C1C1C2C3C41NC)C(=O)N(C)[C@H](C[C@@H](OC(C)=O)c1nc(C(=O)N[C@@H](Cc2ccccc2)C[C@H](C)C(=O)OC)cs1)C(C)C (stereo not given in full) and answer again.
**A:** no (0)

**Q:** Now consider c1cnc2[nH]cc(-c3csc(-c4cn(CCCCN5CCOCC5)c5ccccc45)n3)c2c1 and answer again.
**A:** no (0)

**Q:** Now consider Clc1ccc(N2COOC3(OOC2)C2CC4CC(C2)CC3C4)cc1 and answer again.
**A:** no (0)

**Q:** Now consider CC[C@H](C)[C@@H]([C@@H](CC(=O)N1CCC[C@H]1[C@H](OC)[C@@H](C)C(=O)N[C@H](C)[C@@H](O)c1ccccc1)OC)N(C)C(=O)[C@@H](NC(=O)[C@@H](NC)C(C)C)C(C)C and answer again.
**A:** no (0)

**Q:** Now consider CNC(=O)Oc1cccc(C(F)(F)F)c1 and answer again.
**A:** no (0)

**Q:** Now consider COC(C(=O)[C@@H](O)[C@@H](C)O)[C@@H]1Cc2cc3cc(O[C@H]4C[C@@H](O[C@H]5C[C@@H](O)[C@H](O)C(C)O5)[C@H](O)C(C)O4)c(C)c(O)c3c(O)c2C(=O)[C@H]1O[C@H]1C[C@@H](O[C@H]2C[C@@H](O[C@H]3C[C@@H](O)[C@@H](O)C(C)O3)[C@@H](O)C(C)O2)[C@H](O)C(C)O1 (stereo not given in full) and answer again.
**A:** yes (1)

**Q:** Now consider C[C@@H]1CCC2[C@@H](C)[C@H](OC(=O)CCC(=O)NCCNC(=O)Cc3cc(=O)oc4cc(N(C)C)ccc34)O[C@@H]3O[C@]4(C)CC[C@@H]1C23OO4 (stereo not given in full) and answer again.
**A:** no (0)

**Q:** Now consider Cc1ccccc1NC(=NCCCN1CC1)Nc1ccccc1C and answer again.
**A:** no (0)

**Q:** Now consider CC(=O)ONc1ccc([N+](=O)[O-])c(C(F)(F)F)c1 and answer again.
**A:** no (0)

**Q:** Now consider C[N+](C)(C)Cc1cc(Cl)ccc1O and answer again.
**A:** no (0)

**Q:** Now consider COc1cc(C=Nc2cc(Cl)cc(Cl)c2)ccc1N(CCCl)CCCl and answer again.
**A:** no (0)

**Q:** Now consider C=COC(=O)CCN1CC1 and answer again.
**A:** no (0)

**Q:** Now consider COc1cccc(/C=C/[N+](=O)[O-])c1 and answer again.
**A:** no (0)

**Q:** Now consider CC(=O)O[C@H]1CC[C@H]2[C@@H]3CC=C4c5nc(-c6ccccc6)sc5CC[C@]4(C)[C@H]3CC[C@]12C and answer again.
**A:** no (0)

**Q:** Now consider COc1cc2c(=O)n(C3CCCCCCC3)c3c4cc[nH]c4ncc3c2cc1OC and answer again.
**A:** no (0)

**Q:** Now consider CN(C)C(=O)Oc1ccccc1-c1ccccc1 and answer again.
**A:** no (0)

====

- System: U251 CNS
- procedure-text: NCI-60 one-dose screen, 48 h
- study-conditions: 10 µM unless noted
Compounds without any hit were thinned out: in the full panel of roughly 83,000, 20% have a hit. Calls of active or inactive are those of the source. Rule for the calls: active = growth percent below 10; inactive = the rest.
Result category, one only: yes (1) (active), no (0) (inactive)

**Q:** What call does the record list for O=C1NC(=O)C(=Cc2cn(C(=O)c3ccccc3)c3ccccc23)C(=O)N1 ?
**A:** no (0)

**Q:** Now consider NC(=Nc1ccccc1)N[N+](=O)[O-] and answer again.
**A:** no (0)

**Q:** Now consider COc1ccc(N(CC(=O)NCCC[Te]c2ccccc2)C(=O)CNC(=O)OC(C)(C)C)cc1 and answer again.
**A:** no (0)

**Q:** Now consider CC12CCC3C(CCC4=CC(=O)CCC43CF)C1CCC2=O (stereo not given) and answer again.
**A:** no (0)

**Q:** Now consider CN(CCCCN(C)CCOS(C)(=O)=O)CCOS(C)(=O)=O and answer again.
**A:** no (0)

**Q:** Now consider CC(C)OC(=O)[C@H](C)NP(=O)(Oc1ccccc1)C1CCCN(O)C1=O (stereo not given in full) and answer again.
**A:** no (0)

**Q:** Now consider C/C(=C\c1ccn(-c2ccc(N)cc2)n1)[C@@H]1C[C@@H]2O[C@]2(C)CCC[C@H](C)[C@H](O)[C@@H](C)C(=O)C(C)(C)[C@@H](O)CC(=O)O1 and answer again.
**A:** no (0)

**Q:** Now consider COC(=O)[C@@H](C)C[C@H](Cc1ccccc1)NC(=O)c1csc([C@@H](C[C@H](C(C)C)N(C)C(=O)C2(NC(=O)[C@H]3CCCCN3C)CC2)OC(C)=O)n1 and answer again.
**A:** yes (1)

**Q:** Now consider CC[C@H](C)[C@H](NC(=O)[C@H]1CCCCN1C)C(=O)N(C)[C@H](C[C@@H](OC(C)=O)c1nc(C(=O)N[C@@H](Cc2ccccc2)C[C@H](C)C(=O)OC)cs1)C(C)C and answer again.
**A:** no (0)

**Q:** Now consider CC(CO)NC1CCCCC1 (stereo not given) and answer again.
**A:** no (0)

**Q:** Now consider CC12CC=CCC1CCC1C2CCC2(C)C(c3ccc(=O)oc3)CCC12O (stereo not given) and answer again.
**A:** yes (1)

**Q:** Now consider CC(=O)ONc1ccc([N+](=O)[O-])c(C(F)(F)F)c1 and answer again.
**A:** no (0)

**Q:** Now consider COC(=O)[C@@H](C)C[C@H](Cc1ccccc1)NC(=O)c1nc([C@@H](C[C@H](C(C)C)N(C)C(=O)[C@@H](NC(=O)[C@H]2C[C@H](O)CCN2C)C(C)C)OC(C)=O)sc1C(C)C and answer again.
**A:** yes (1)

**Q:** Now consider CC(=O)O[C@H]1CC[C@]2(C)[C@H]3CC[C@]4(C)[C@@H](OC(C)=O)CC[C@H]4[C@@H]3[C@@H](C)[C@]2(O)C1 and answer again.
**A:** no (0)

**Q:** Now consider NC(CCl)CCl and answer again.
**A:** no (0)

**Q:** Now consider C=CCCCN=C=S and answer again.
**A:** no (0)

**Q:** Now consider CC(=O)O[C@H]1CC[C@@]2(C)C(=CC[C@H]3[C@@H]4C[C@@H](N5CC5)[C@H](C(C)=O)[C@@]4(C)CC[C@@H]32)C1 and answer again.
**A:** no (0)

**Q:** Now consider Cc1cc(NC(=O)NCc2ccc(N3C(N)=NC(N)=NC3(C)C)cc2)ccc1S(=O)(=O)F and answer again.
**A:** no (0)

**Q:** Now consider COC(=O)[C@@H](C)C[C@H](Cc1ccccc1)NC(=O)c1csc([C@@H](C[C@H](C(C)C)N(C)C(=O)C2(NC(=O)[C@H]3CCCCN3C)CCC2)OC(C)=O)n1 and answer again.
**A:** yes (1)

**Q:** Now consider CN(C)CC(C(=O)Cc1ccccc1)c1ccccc1 (stereo not given) and answer again.
**A:** no (0)

**Q:** Now consider CNCc1cccnc1 and answer again.
**A:** no (0)

**Q:** Now consider CC(C)=CCC/C(C)=C/C=N\N=C(/N)N[N+](=O)[O-] and answer again.
**A:** no (0)

**Q:** Now consider OCCCCCNC1CCCCC1 and answer again.
**A:** no (0)

**Q:** Now consider COC(=O)[C@@H](C)C[C@H](Cc1ccccc1)NC(=O)c1csc([C@@H](C[C@H](C(C)C)N(C)C(=O)[C@H](C)NC(=O)[C@H]2CCCCN2C)OC(C)=O)n1 and answer again.
**A:** no (0)

**Q:** Now consider C/C(=C\c1ccn(-c2ccccc2N)n1)[C@@H]1C[C@@H]2O[C@]2(C)CCC[C@H](C)[C@H](O)[C@@H](C)C(=O)C(C)(C)[C@@H](O)CC(=O)O1 and answer again.
**A:** no (0)

**Q:** Now consider CCN(CC)c1ccc2c(c1)OC(N)=C(C#N)C2c1cc(OC)c2c(c1)OCO2 (stereo not given) and answer again.
**A:** no (0)

**Q:** Now consider Cc1cc(-c2nc3cc(F)ccc3[se]2)cc(F)c1N and answer again.
**A:** no (0)

**Q:** Now consider Cn1cc(-c2csc(-c3cn(CCCCN4CCCCC4)c4ccc(F)cc34)n2)c2cccnc21 and answer again.
**A:** no (0)

**Q:** Now consider O=[N+]([O-])c1c(Br)sc(Br)c1[N+](=O)[O-] and answer again.
**A:** yes (1)

**Q:** Now consider O=C(CN1CCN(C(=O)c2ccco2)CC1)Nc1ccc(Cl)cc1C(=O)c1ccccc1Cl and answer again.
**A:** no (0)

**Q:** Now consider COc1cccc2c1c(C(=O)c1ccco1)cn2Cc1ccc(F)cc1 and answer again.
**A:** no (0)

**Q:** Now consider COC(=O)[C@@H](C[C@H](Cc1ccccc1)NC(=O)c1csc([C@@H](C[C@H](C(C)C)N(C)C(=O)[C@@H](NC(=O)[C@H]2CCCCN2C)C(C)C)OC(C)=O)n1)NC(=O)OCc1ccccc1 and answer again.
**A:** yes (1)

**Q:** Now consider Fc1ccc2c(c1)c(-c1nc(-c3c[nH]c4ncccc34)cs1)cn2CCN1CCOCC1 and answer again.
**A:** no (0)

**Q:** Now consider CCOC(=O)[C@@H](C)C[C@H](Cc1ccccc1)NC(=O)c1csc([C@@H](C[C@H](C(C)C)N(C)C(=O)CNC(=O)[C@H]2CCCCN2C)OC(C)=O)n1 and answer again.
**A:** no (0)

**Q:** Now consider CCc1ccccc1[C@@H]1C[C@]2(C)CCO[C@@H]2OO1 and answer again.
**A:** no (0)
